# EXPERIMENTAL_TARGET: Pfs25, monomeric, Nicotiana benthamiana-produced (Plasmodium falciparum (NF54; identical …, UniProt P13829)
# Sequence (P13829 17-196): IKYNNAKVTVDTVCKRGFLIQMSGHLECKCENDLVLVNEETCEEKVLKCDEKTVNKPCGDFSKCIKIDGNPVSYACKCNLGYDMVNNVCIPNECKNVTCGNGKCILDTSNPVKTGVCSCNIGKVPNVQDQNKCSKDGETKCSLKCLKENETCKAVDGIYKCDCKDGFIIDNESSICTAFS
# ASSAY_TEXT: BLI
# CONDITION_INFO: both partners purified
MEASURED_QUANTITY: binding result

1268 Fab (Fab, V domains shown, also called mAb 1268; source: HEK293F, transient, purified (KappaSelect or LambdaSelect, MonoS, SEC)) VH: EVQLVESGGGLVKPGGSLRLSCAASGFTFSRYSMNWVRQAPGKGLEWVSSISSRSSYKYYVDSVKGRFTISRDNAKNSLYLQMNSLRAEDTAVYYCARDDYGSGSYYYNWLDPWGQGTLVTVSS VL: DIQLTQSPSFLSASVGDRVTITCWASQGISSFLAWYQQKPGKAPKLLIYAASTLESGVPSRFSGSGSGTEFTLTISSLQPEDFATYYCQQLNSYPRTFGQGTKVEIK
binds
